Recorded log10(XC50) values for a group of compounds are listed next.
Test system: Plasmodium falciparum
Test: GSK_TCMDC: Inhibition of Plasmodium falciparum 3D7 in whole erythrocytes, using parasite LDH activity as an index of growth.
Type: functional, organism-based
Details: Plasmodium falciparum, 3D7
experimental_readout: log10(XC50) (log10 of the value in µM)

compound=CC(C)c1ccc(NC(=O)c2ccc(C(=O)NC3CCN(CC4CCCCC4)CC3)cc2)cc1 experimental_readout=log10(XC50) endpoint_result=-0.19
compound="O=C(/C=C/c1ccc(Cl)c(Cl)c1)NC1CCC(CN2CCC(c3nc4ccccc4s3)CC2)CC1 (stereo not drawn)" experimental_readout=log10(XC50) endpoint_result=0.01
compound=O=C(CCc1c[nH]cn1)Nc1ccc(-c2cccc(-c3nc4ccccc4[nH]3)c2)cc1 experimental_readout=log10(XC50) endpoint_result=-0.46
compound=O=C(Nc1ccc([N+](=O)[O-])cc1O)Nc1ccccc1Oc1ccccc1 experimental_readout=log10(XC50) endpoint_result=-0.03
compound=O=C(Nc1cccc(CN2CCCN(Cc3ccc(O)cc3)CC2)c1)c1ccc2ccccc2c1 experimental_readout=log10(XC50) endpoint_result=-0.43
compound=COc1cccc2c1CCN(CCN1CCC(CNC(=O)c3ccc(-c4ccc(C#N)cc4)cc3)CC1)C2 experimental_readout=log10(XC50) endpoint_result=-0.12
compound=COc1ccc2c(=NN=C(C)c3ccccn3)cc(C)[nH]c2c1 experimental_readout=log10(XC50) endpoint_result=-0.14
compound=COc1ccc(Nc2ncc3c(-c4cccc(NC(=O)Cc5cccnc5)c4)c[nH]c3n2)cc1OC experimental_readout=log10(XC50) endpoint_result=-0.14
compound=CN(C)Cc1cc2c(O)c(Cc3ccccc3)ccc2o1 experimental_readout=log10(XC50) endpoint_result=0.04
compound=CCCCCCCCn1c2c(c(=N)c3c1CCC3)CCC2 experimental_readout=log10(XC50) endpoint_result=-0.65
compound=N#Cc1cccc(C(=O)Nc2cccc(-c3ccc(CN4CCC(O)CC4)cc3)c2)c1 experimental_readout=log10(XC50) endpoint_result=0.11
compound=COc1ccc2nccc([C@@H](O)CN3CCC(NC(=O)COc4nc(SCc5ccc(F)cc5)nc5c4CCC5)CC3)c2c1 experimental_readout=log10(XC50) endpoint_result=-0.23
compound=O=C(Nc1ccccc1Cl)c1cc2ccccc2cc1O experimental_readout=log10(XC50) endpoint_result=0.00
compound=COc1cc(-c2nc3c4ccccc4c4ccccc4c3[nH]2)cc(OC)c1OC experimental_readout=log10(XC50) endpoint_result=-0.07
compound=CN1CCN(Cc2cc(NC(=O)c3ccc(-c4ccc(Cl)cc4Cl)cc3)ccc2-c2ccccc2)CC1 experimental_readout=log10(XC50) endpoint_result=-0.01
compound=O=C(Nc1ccc([N+](=O)[O-])cc1)Nc1cc(OCC(F)(F)F)cc(OCC(F)(F)F)c1 experimental_readout=log10(XC50) endpoint_result=-0.33
compound=CC1(C)[C@H]2CC[C@@H](CNc3nc(NCCc4c[nH]cn4)nc(NCc4cc(F)ccc4F)n3)[C@@H]1C2 experimental_readout=log10(XC50) endpoint_result=-0.51
compound=Oc1ccc(CN2CCN(CCOC(c3ccccc3)c3ccccc3)CC2)cc1Cl experimental_readout=log10(XC50) endpoint_result=-0.09
compound=CCOc1cccc(C(=O)Nc2ccc(-c3nc4ccccc4[nH]3)cc2)c1 experimental_readout=log10(XC50) endpoint_result=0.00
compound=CCCS(=O)(=O)c1nc(S(=O)(=O)c2ccc(Cl)cc2)c(N2CCCCC2)s1 experimental_readout=log10(XC50) endpoint_result=0.11
compound=O=C(Nc1cccc([N+](=O)[O-])c1)Nc1ccc(Cl)c(C(F)(F)F)c1 experimental_readout=log10(XC50) endpoint_result=0.05
compound=Cc1nnsc1C(=O)Nc1cccc(-c2ccc(-c3nc4cc(F)ccc4[nH]3)cc2)c1 experimental_readout=log10(XC50) endpoint_result=-1.02
compound=Cc1cccc2nc(-c3ccc(-c4ccc(CN5CCN(c6ccc(C#N)cn6)CC5)cc4)s3)[nH]c12 experimental_readout=log10(XC50) endpoint_result=0.05
compound=CCn1c(Sc2ccc([N+](=O)[O-])c(C#N)c2)nnc1-c1ccc(Cl)cc1 experimental_readout=log10(XC50) endpoint_result=0.00
compound=CCc1cn(C)c2c(N3CCCC3=O)cc(C(=O)N[C@@H](Cc3ccccc3)[C@H](O)CNC(C)(C)c3cccc(OC)c3)cc12 experimental_readout=log10(XC50) endpoint_result=-1.44
compound=Cc1c(C)n(C2CCCCC2)c2ncnc(OC3CCN(CC(=O)N4CCCC4)CC3)c12 experimental_readout=log10(XC50) endpoint_result=0.16
compound="O=C(Nc1ccccc1-c1ccccc1)C1CCCN1C(=O)Nc1ccc(Cl)cc1 (stereo not drawn)" experimental_readout=log10(XC50) endpoint_result=-0.10
compound=Cc1cc(C2CCN(CCCCNC(=O)c3ccc(-c4ccc(C#N)cc4)cc3)CC2)c(C)cc1OCCO experimental_readout=log10(XC50) endpoint_result=-0.09
compound=COc1ccc2oc(=O)c(C#N)c(O)c2c1 experimental_readout=log10(XC50) endpoint_result=-0.68
compound=COc1cc2nc(N3CCC(CNC(=O)c4ccc(-c5ccc(C(=O)N(C)C)cc5)cc4)CC3)nc(N)c2cc1OC experimental_readout=log10(XC50) endpoint_result=-0.13
compound=CN(C)CCNCc1ncsc1-c1ccc2c(Nc3ccc(F)cc3Cl)ccnc2c1 experimental_readout=log10(XC50) endpoint_result=0.17
compound=CCN(CC)CCCN(CCCN(CC)CC)c1cc(C)nc(Nc2ccc(Br)cc2)n1 experimental_readout=log10(XC50) endpoint_result=-0.70
compound="OC(CNc1ccnc(Nc2ccccc2)n1)c1cccc(C(F)(F)F)c1 (stereo not drawn)" experimental_readout=log10(XC50) endpoint_result=-0.19
compound=Cc1noc(C)c1-c1ccc2c(Nc3ccccc3N3CCOCC3)c(C(=O)NCc3ccccc3)cnc2c1 experimental_readout=log10(XC50) endpoint_result=0.07
compound=CN1CCN(CCCN(Cc2cccc(-c3ccc(CNCCc4ccccc4)cc3)c2)C(=O)Nc2ccccc2)CC1 experimental_readout=log10(XC50) endpoint_result=-0.08
compound="CN(CCC1CCN(C(=O)/C=C/c2ccc(Cl)c(Cl)c2)CC1)C1CCC(c2c[nH]c3ccccc23)CC1 (stereo not drawn)" experimental_readout=log10(XC50) endpoint_result=-0.11
compound=CCCNCc1ccc(-c2ccc(CN(C(=O)c3nn(-c4ccccc4)nc3C)C3CC3)cc2)nc1 experimental_readout=log10(XC50) endpoint_result=-0.68
compound="Cc1ccc(NC(=O)c2ccc3ncccc3c2)cc1OC1CCN(C(C)C)C1 (stereo not drawn)" experimental_readout=log10(XC50) endpoint_result=0.00

###

Recorded XC50 values for a group of molecules are listed next.
Tested on: Plasmodium falciparum
Assay: GSK_TCMDC: Inhibition of Plasmodium falciparum 3D7 in whole erythrocytes, using parasite LDH activity as an index of growth.
Format: functional, organism-based
Conditions: Plasmodium falciparum, 3D7
experimental_readout: XC50 (nM)

molecule=Nc1nccc2ccc(Oc3ccncc3)cc12 experimental_readout=XC50 endpoint_result=481
molecule=CC(=O)Nc1ccc([N+](=O)[O-])c2c(Br)cccc12 experimental_readout=XC50 endpoint_result=636
molecule="COC1(C)Oc2ccc3cccc([N+](=O)[O-])c3c2C1=O (stereo unspecified)" experimental_readout=XC50 endpoint_result=635
molecule="COc1ccc(CC2(c3ccc(F)cc3)N=C(N)N(CCCc3ccccc3)C2=O)cc1 (stereo unspecified)" experimental_readout=XC50 endpoint_result=613
molecule=COc1cc(-c2nc(-c3ccc(C(=O)c4ccc(F)cc4)cc3)c(-c3ccccc3)[nH]2)cc(OC)c1O experimental_readout=XC50 endpoint_result=659
molecule=COc1cc2nc(N3CCN(c4cc(C)ccc4C)CC3)nc(N)c2cc1OC experimental_readout=XC50 endpoint_result=851
molecule=O=C(c1cc(C(=O)Nc2ccccc2)c(=O)n(-c2ccccc2)c1)c1cc(Cl)ccc1O experimental_readout=XC50 endpoint_result=390
molecule="CN(Cc1ccccc1)C1CCCN(c2cc(NC(=O)c3cccs3)ccn2)C1 (stereo unspecified)" experimental_readout=XC50 endpoint_result=1130
molecule=COc1ccc2c(=O)c3ccc(OC)cc3[nH]c2c1 experimental_readout=XC50 endpoint_result=810
molecule=COc1ccc2c(-c3ccccc3)noc2c1 experimental_readout=XC50 endpoint_result=241
molecule="COc1ccc(Br)cc1/C=C/C(=O)Nc1ccc(C2CCCN(C)C2)cc1 (stereo unspecified)" experimental_readout=XC50 endpoint_result=633

###

System: Plasmodium falciparum
Test: GSK_TCMDC: Inhibition of Plasmodium falciparum 3D7 in whole erythrocytes, using parasite LDH activity as an index of growth.
Type: functional, organism-based
Where a name gives a salt, the structure may show the parent alone.
experimental_readout: log10 of XC50 (log10 of the value in µM)

compound="Cc1c(C)c2c(c(C)c1O)CC[C@](C)(C(=O)NC1CCC(CN3CCC(c4c[nH]c5ccccc45)CC3)CC1)O2 (some centres undefined)" experimental_readout="log10 of XC50" endpoint_result=0.05
compound="O=C(C=Cc1cccc(Cl)c1Cl)NC1CCC(CN2CCC(c3c[nH]c4ccccc34)CC2)CC1 (centres undefined)" experimental_readout="log10 of XC50" endpoint_result=0.06
compound="COc1ccc(C=CC(=O)NC2CCC(CN3CCC(c4c[nH]c5ccccc45)CC3)CC2)cc1OC (centres undefined)" experimental_readout="log10 of XC50" endpoint_result=-0.08
compound="O=C(/C=C/c1ccc([N+](=O)[O-])cc1)NC1CCC(CN2CCC(c3c[nH]c4ccccc34)CC2)CC1 (centres undefined)" experimental_readout="log10 of XC50" endpoint_result=-0.08
compound="CCOc1ccc2nccc([C@@H](O)[C@@H]3C[C@@H]4CCN3C[C@@H]4CC)c2c1 [ETHYLHYDROCUPREINE HYDROCHLORIDE]" experimental_readout="log10 of XC50" endpoint_result=-0.95
compound="O=C(/C=C/c1cccc2ccccc12)NC1CCC(CN2CCC(c3c[nH]c4ccccc34)CC2)CC1 (centres undefined)" experimental_readout="log10 of XC50" endpoint_result=-0.13
compound="Oc1cccc(-c2nc3cc(C4=NC5CCCCC5N4)ccc3[nH]2)c1 (centres undefined)" experimental_readout="log10 of XC50" endpoint_result=-0.28
compound="O=C(NCCCCN1CCCC2c3ccc(O)cc3CCC21)c1ccc(-c2ccccc2)cc1 (centres undefined)" experimental_readout="log10 of XC50" endpoint_result=-0.02
compound="O=C(C=C1c2ccccc2-c2ccccc21)NC1CCC(CN2CCC(c3c[nH]c4ccccc34)CC2)CC1 (centres undefined)" experimental_readout="log10 of XC50" endpoint_result=-0.16
